molecular target: Serine/threonine-protein kinase PLK4 (Homo sapiens, UniProt O00444)
Sequence (O00444 whole entry): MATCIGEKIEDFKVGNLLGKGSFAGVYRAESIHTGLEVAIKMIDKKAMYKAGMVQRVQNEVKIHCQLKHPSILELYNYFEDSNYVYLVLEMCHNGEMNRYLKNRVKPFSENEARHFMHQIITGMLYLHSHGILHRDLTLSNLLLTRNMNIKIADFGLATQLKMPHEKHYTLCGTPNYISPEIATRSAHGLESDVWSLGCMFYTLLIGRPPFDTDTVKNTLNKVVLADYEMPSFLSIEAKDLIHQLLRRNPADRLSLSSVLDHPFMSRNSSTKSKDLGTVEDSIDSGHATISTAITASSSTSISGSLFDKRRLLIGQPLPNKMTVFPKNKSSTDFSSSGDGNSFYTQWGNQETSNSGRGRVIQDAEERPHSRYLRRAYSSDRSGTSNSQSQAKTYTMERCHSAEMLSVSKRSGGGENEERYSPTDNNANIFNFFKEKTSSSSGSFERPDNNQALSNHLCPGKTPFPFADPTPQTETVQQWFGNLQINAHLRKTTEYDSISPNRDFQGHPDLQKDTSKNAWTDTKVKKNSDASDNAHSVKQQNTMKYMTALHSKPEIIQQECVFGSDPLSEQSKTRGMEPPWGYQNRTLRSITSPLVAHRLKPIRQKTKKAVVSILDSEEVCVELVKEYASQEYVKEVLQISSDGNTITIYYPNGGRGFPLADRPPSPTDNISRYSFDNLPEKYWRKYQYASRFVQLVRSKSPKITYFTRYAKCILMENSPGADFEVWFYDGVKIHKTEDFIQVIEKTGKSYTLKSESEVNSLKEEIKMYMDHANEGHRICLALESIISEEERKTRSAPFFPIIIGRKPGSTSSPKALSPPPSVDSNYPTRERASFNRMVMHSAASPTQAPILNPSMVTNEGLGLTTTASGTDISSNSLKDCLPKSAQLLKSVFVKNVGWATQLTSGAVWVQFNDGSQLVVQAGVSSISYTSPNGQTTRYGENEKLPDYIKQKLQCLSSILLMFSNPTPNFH
Measured endpoint: IC50 (µM)

[
  {
    "Compound": "O=C(c1cccc(-c2n[nH]c3ncc(Cc4cc(F)ccc4F)cc23)c1)N1CCCC(O)C1 (stereo unspecified)",
    "Measured endpoint": "IC50",
    "Units": "µM",
    "Quantitative readout": 0.056
  }
]

----------
target: BDNF/NT-3 growth factors receptor (Homo sapiens, UniProt Q16620); test: Inhibition of TRKB (unknown origin)
Sequence (Q16620 whole entry, the tested form may be a part): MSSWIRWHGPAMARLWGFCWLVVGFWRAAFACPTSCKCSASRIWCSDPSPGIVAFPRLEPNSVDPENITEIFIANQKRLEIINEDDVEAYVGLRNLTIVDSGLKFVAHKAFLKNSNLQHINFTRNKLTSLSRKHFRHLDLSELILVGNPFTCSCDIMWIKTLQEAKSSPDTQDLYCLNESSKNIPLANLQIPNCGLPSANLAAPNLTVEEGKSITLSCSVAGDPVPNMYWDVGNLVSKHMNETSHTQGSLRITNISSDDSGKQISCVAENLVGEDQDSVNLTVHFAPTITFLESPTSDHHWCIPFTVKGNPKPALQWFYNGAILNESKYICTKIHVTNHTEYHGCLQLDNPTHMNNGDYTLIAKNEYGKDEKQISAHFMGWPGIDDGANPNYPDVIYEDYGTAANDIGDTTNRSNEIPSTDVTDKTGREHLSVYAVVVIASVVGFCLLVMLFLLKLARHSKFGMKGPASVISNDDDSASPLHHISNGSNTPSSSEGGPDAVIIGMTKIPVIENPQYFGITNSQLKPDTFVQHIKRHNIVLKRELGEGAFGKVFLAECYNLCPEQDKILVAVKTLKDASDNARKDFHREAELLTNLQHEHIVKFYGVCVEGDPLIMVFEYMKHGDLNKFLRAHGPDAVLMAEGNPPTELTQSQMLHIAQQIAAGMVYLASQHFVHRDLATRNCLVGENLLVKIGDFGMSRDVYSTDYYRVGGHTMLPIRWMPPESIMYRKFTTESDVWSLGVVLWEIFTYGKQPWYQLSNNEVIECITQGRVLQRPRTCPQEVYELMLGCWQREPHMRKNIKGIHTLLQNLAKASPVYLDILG

[
  {
    "Molecule": "CCOc1nn(-c2ccccc2)c(NC(=O)NC2CN(CCOC)C[C@H]2c2ccc(F)c(F)c2)c1C (stereo partly specified)",
    "Units": "nM",
    "IC50": 1300
  }
]

----------
experiment: Stability in human plasma assessed as half life measured after 120 mins by LC-MS/MS analysis; type: ADME, cell-free

[
  {
    "Compound": "O=C(c1cccc(-c2n[nH]c3ncc(Cc4cc(F)ccc4F)cc23)c1)N1CCCC(O)C1 (stereo unspecified)",
    "half-life": "> 4.82 h"
  }
]

----------
molecular target: BDNF/NT-3 growth factors receptor (Homo sapiens); assay: Inhibition of human intracellular domain of TRKB expressed in Sf9 cells incubated for 1 hr by HTRF method
Measured endpoint: IC50 (nM)

[
  {
    "Smi": "CN1CCN(c2ccc(C(=O)Nc3n[nH]c4c3CN(Cc3cc(F)cc(F)c3)C4(C)C)cc2)CC1",
    "Tested on": "BDNF/NT-3 growth factors receptor (Homo sapiens)",
    "Quantitative readout": 11
  }
]

----------
target: High affinity nerve growth factor receptor (Homo sapiens, UniProt P04629); assay: Inhibition of TRKA (unknown origin)
Sequence (P04629 whole entry): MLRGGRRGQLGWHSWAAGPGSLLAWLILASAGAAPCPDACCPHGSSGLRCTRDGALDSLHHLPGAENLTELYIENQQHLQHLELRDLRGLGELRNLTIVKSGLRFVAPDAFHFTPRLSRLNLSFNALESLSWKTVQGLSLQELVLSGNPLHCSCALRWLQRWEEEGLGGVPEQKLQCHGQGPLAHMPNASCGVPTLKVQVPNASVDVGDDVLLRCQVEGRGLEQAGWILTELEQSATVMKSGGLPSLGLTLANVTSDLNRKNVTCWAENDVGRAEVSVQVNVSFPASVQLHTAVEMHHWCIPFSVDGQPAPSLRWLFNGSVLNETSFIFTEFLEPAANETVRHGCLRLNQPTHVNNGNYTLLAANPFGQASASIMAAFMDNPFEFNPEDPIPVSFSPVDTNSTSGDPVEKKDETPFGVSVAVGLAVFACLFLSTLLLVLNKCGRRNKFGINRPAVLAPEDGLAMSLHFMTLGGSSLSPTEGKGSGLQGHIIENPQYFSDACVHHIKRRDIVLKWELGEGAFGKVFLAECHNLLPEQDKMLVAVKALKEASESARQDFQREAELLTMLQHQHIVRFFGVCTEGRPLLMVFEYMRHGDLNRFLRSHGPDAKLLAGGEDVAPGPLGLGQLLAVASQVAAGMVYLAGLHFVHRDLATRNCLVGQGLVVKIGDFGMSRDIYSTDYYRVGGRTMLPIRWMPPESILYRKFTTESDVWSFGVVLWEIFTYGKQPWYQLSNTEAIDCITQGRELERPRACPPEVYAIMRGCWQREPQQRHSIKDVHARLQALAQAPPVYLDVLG
The reader will find reported IC50 values listed item by item below.

[
  {
    "Compound": "Nc1ncc(-c2cnn(C3CCNCC3)c2)cc1NCc1ccccc1",
    "IC50": "810 nM"
  },
  {
    "Compound": "CC(Nc1cc(-c2cnn(C3CCN(C)CC3)c2)cnc1N)c1cc(F)ccc1F (centres undefined)",
    "IC50": "7 nM"
  },
  {
    "Compound": "CC(Nc1cc(-c2cnn(C3CCNCC3)c2)cnc1N)c1cc(F)ccc1F (centres undefined)",
    "IC50": "6.5 nM"
  },
  {
    "Compound": "CC(Nc1cc(-c2cnn(CCCO)c2)cnc1N)c1cc(F)ccc1F (centres undefined)",
    "IC50": "5 nM"
  }
]

Where do these numbers come from? They come from ChEMBL document CHEMBL5634073.
